Values were extracted from patent US8183371B2.

Entries annotated with measured GTPγS δ-opioid receptor Rel Efficacy
Biological target: δ-opioid receptor (Mus musculus)
Construct: NG108-15 cell membranes were purchased from Applied Cell Sciences (Rockville, Md.); host or cells: NG108-15 cell membranes (purchased)
Sequence (P32300 whole entry): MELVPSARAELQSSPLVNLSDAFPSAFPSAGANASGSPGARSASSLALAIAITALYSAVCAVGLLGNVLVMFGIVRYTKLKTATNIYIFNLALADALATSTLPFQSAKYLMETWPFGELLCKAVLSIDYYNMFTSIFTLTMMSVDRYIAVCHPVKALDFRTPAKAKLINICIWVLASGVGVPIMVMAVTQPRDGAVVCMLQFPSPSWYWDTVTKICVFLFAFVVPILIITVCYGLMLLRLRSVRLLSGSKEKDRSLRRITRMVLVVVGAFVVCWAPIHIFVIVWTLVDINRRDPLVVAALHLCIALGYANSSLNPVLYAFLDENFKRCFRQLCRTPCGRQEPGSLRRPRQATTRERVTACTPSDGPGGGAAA
Test: [35S]GTPγS binding assay in NG108-15 cell membranes (delta opioid functional assay)
Type: biochemical
// response body must contain only the number

# count of solved cases: 3
compound_structure=N#Cc1cncc(-c2cnc(NC[C@@H]3CCCN3)c(Oc3cccc(O)c3)n2)c1 study_target="δ-opioid receptor (Mus musculus)" endpoint_result=1.1104
compound_structure=COCC#Cc1cnc(NC[C@@H]2CCCN2)c(Oc2ccc(OC)cc2)n1 study_target="δ-opioid receptor (Mus musculus)" endpoint_result=0.9477
compound_structure=COc1ccc(Oc2nc(-c3cncnc3)cnc2NC[C@@H]2CCCN2)c(F)c1 study_target="δ-opioid receptor (Mus musculus)" endpoint_result=1.1022

The compound "COc1ccc(Oc2nc(-c3cncc(C#N)c3)cnc2N2CCNCC2)cc1" showed GTPγS δ-opioid receptor Rel Efficacy equal to 1.1345

The compound "COc1ccc(Oc2nc(-c3cccnc3)cnc2N2CCNCC2)cc1" showed GTPγS δ-opioid receptor Rel Efficacy equal to 1.0012

----------
# GTPγS δ-opioid receptor Rel Efficacy per entry
Biological target: δ-opioid receptor (Mus musculus)
Construct: NG108-15 cell membranes were purchased from Applied Cell Sciences (Rockville, Md.); host or cells: NG108-15 cell membranes (purchased)
Test: [35S]GTPγS binding assay in NG108-15 cell membranes (delta opioid functional assay)
Type: biochemical
# respond with the number and nothing more

Example results:
compound_structure=COc1ccc(Oc2nc(C#Cc3cccnc3)cnc2NC[C@@H]2CCCN2)cc1 result_type="GTPγS δ-opioid receptor Rel Efficacy" endpoint_result=1.0797
compound_structure=COc1ccc(Oc2nc(-c3cncc(C#N)c3)cnc2NC[C@@H]2CCCN2)cc1F result_type="GTPγS δ-opioid receptor Rel Efficacy" endpoint_result=1.0387
compound_structure=N#Cc1cncc(-c2cnc(NC[C@@H]3CCCN3)c(Oc3ccc(OC(F)(F)F)cc3)n2)c1 result_type="GTPγS δ-opioid receptor Rel Efficacy" endpoint_result=0.9719
compound_structure=COc1ccc(Oc2nc(-c3cncnc3)cnc2NC[C@@H]2CCCN2)cc1F result_type="GTPγS δ-opioid receptor Rel Efficacy" endpoint_result=1.0302
compound_structure=N#CCc1ccc(Oc2nc(-c3cncc(C#N)c3)cnc2NC[C@@H]2CCCN2)cc1 result_type="GTPγS δ-opioid receptor Rel Efficacy" endpoint_result=1.0035
compound_structure=N#Cc1cncc(-c2cnc(NC[C@@H]3CCCN3)c(Oc3ccc4occc4c3)n2)c1 result_type="GTPγS δ-opioid receptor Rel Efficacy" endpoint_result=1.0736

GTPγS δ-opioid receptor Rel Efficacy for "CCc1ccc(Oc2nc(-c3cncnc3)cnc2NC[C@@H]2CCCN2)cc1" is 1.1553

# compound "N#Cc1cncc(-c2cnc(NC[C@@H]3CCCN3)c(Oc3ccc4[nH]ccc4c3)n2)c1" ; its GTPγS δ-opioid receptor Rel Efficacy = 1.1190

Entry "COc1ccc(Oc2nc(-c3ccc(OC)nc3)cnc2NC[C@@H]2CCCN2)cc1" , GTPγS δ-opioid receptor Rel Efficacy reported as 0.8696

Sample "COc1ccc(Oc2nc(-c3cncnc3)cnc2NC[C@@H]2CCCN2)cc1" ; GTPγS δ-opioid receptor Rel Efficacy observed: 1.0984

GTPγS δ-opioid receptor Rel Efficacy measured on "N#Cc1cncc(-c2cnc(NC[C@@H]3CCCN3)c(Oc3cccc(Cl)c3)n2)c1" = 1.1894
